- Target: A*0206 (Homo sapiens, UniProt P04439, D140Y/D185E/D98H/E176V/E277Q/F33Y/G131W/G231S/I119V/I121R/I166T/I218V/L300P/L318F/N151K/N90K/P208A/P217A/Q86G/Q94H/R138H/R169H/T345S)
- Test Name: biochemical
Quantity Measured: pIC50
// returns pIC50 (minus log10 of molar concentration), number only

- Compound: "CSCC[C@H](NC(=O)[C@H](C)N)C(=O)N[C@@H](CS)C(=O)N[C@@H](CCCNC(=N)N)C(=O)N[C@@H](Cc1c[nH]c2ccccc12)C(=O)NCC(=O)N[C@@H](CC(C)C)C(=O)N[C@@H](CC(C)C)C(=O)N[C@H](C(=O)O)C(C)C [Peptide 1334.07]"
  pIC50: 5.67
- Compound: "CSCC[C@H](NC(=O)[C@@H](N)CCCNC(=N)N)C(=O)N1CCC[C@H]1C(=O)N[C@@H](CCC(=O)O)C(=O)N[C@@H](C)C(=O)N[C@@H](C)C(=O)N1CCC[C@H]1C(=O)N1CCC[C@H]1C(=O)N[C@H](C(=O)N[C@H](C(=O)O)C(C)C)C(C)C [Peptide 1317.29]"
  pIC50: 6.59
- Compound: "CC[C@H](C)[C@H](NC(=O)CN)C(=O)N[C@@H](CCSC)C(=O)N[C@H](C(=O)NCC(=O)N[C@H](C(=O)N[C@@H](CC(C)C)C(=O)N[C@H](C(=O)NCC(=O)N[C@H](C(=O)N[C@H](C(=O)O)C(C)C)C(C)C)C(C)C)C(C)C)[C@@H](C)CC [Peptide 9013.0344]"
  pIC50: 6.04
- Compound: "CC[C@H](C)[C@H](NC(=O)[C@@H](NC(=O)[C@@H](NC(=O)[C@@H](NC(=O)[C@@H](NC(=O)[C@@H](NC(=O)[C@@H](N)CCCNC(=N)N)[C@@H](C)O)[C@@H](C)O)C(C)C)[C@@H](C)O)[C@@H](C)O)C(=O)N[C@H](C(=O)N[C@H](C(=O)N[C@@H](Cc1ccc(O)cc1)C(=O)N[C@H](C(=O)O)C(C)C)C(C)C)[C@@H](C)O [Peptide 9013.0304]"
  pIC50: 7.14

// lookup pIC50 for CC(C)C[C@H](NC(=O)[C@@H](N)CCCNC(=N)N)C(=O)N1CCC[C@H]1C(=O)N[C@@H](CCC(=O)O)C(=O)N[C@@H](C)C(=O)N[C@@H](C)C(=O)N1CCC[C@H]1C(=O)N1CCC[C@H]1C(=O)N[C@H](C(=O)N[C@H](C(=O)O)C(C)C)C(C)C [Peptide 1323.17] 6.62

----------
- Target: A*0203 (Homo sapiens, UniProt P04439, A173T/D140Y/D185E/D98H/E277Q/G131W/G231S/I119V/I121R/I166T/I218V/L180W/L300P/L318F/N151K/N90K/P208A/P217A/Q86G/Q94H/R138H/R169H/T345S)
- Test Name: biochemical
- Format: binding
No end group written: not given here.
Lab note: cut-off is 500 nM. Strictly less in IC50 is condition met. Exactly 500 nM or more is condition not met.

Sample answers from the record:
- Residue String: "KTITVSAEV [Peptide 9013.0083]"
  Class: "condition met"
- Residue String: "GMIDDVTPI [Peptide 1578.24]"
  Class: "condition met"

IC50 strictly < 500 nM for this sequence? TLELFISNI [Peptide 9013.0082] condition not met

Strictly below 500 nM: is that where IC50 of EVLLLVHNV [Peptide 9013.0021] sits? condition not met

Strictly below 500 nM: is that where IC50 of QQSTQELFV [Peptide 9013.0056] sits? condition met

A record lists RTTVKTITVSV [Peptide 9013.0318] . Is its IC50 below 500 nM? condition met

Please state whether IC50 is below 500 nM for QQHTQVLFV [Peptide 9013.0102] condition met

Below 500 nM on IC50? Entry LQLSNDNRV [Peptide 9013.0072] condition not met

Does the reported IC50 of the following sequence sit strictly below 500 nM? GTFQQSTQEV [Peptide 9013.0175] condition met

Consider the sequence TAKLTIESV [Peptide 9013.0009] . Is its IC50 strictly less than 500 nM? condition met

# TODO verify IC50 < 500 nM strictly for this sequence: TIESTPFNVV [Peptide 9013.0130] condition not met

# strict comparison: is reported IC50 < 500 nM? input = AIFGVNPTV [Peptide 1578.25] condition met

# check: IC50 < 500 nM for ALFNVQEGV [Peptide 1578.41] condition met

----------
- Target: A31 (A*3101) (Homo sapiens, UniProt P04439, A270S/D185E/E176V/E277Q/F33T/G231S/G80R/H175R/I121M/I218V/I322F/K168Q/L300P/L318F/M331R/P217A/Q94H/R138Q/T323A/T345S/T97I/V358M)
- Test Name: biochemical
- Assay type: binding
No end group written: not given here.
# maps each entry to its pIC50
A value of pIC50 is the negative decimal logarithm of a concentration given in moles per litre.

- Residue String: "VLMWKFDSR [Peptide 9017.0066]"
  pIC50: 7.14

Sample QVVPALSVSK [Peptide 1589.13] — what was its pIC50? 5.05

Would you kindly share the measured pIC50 for KGLGISYGR [Peptide 1577.30] ? 8.85

What value of pIC50 has been reported for the following sequence? KQFLQGVPK [Peptide 88.0390] 7.36

Can you share its pIC50? I mean this sequence: AILGHIVSPR [Peptide 9017.0225] 8.34

Requested field: pIC50. Item: HLFRYSWYK [Peptide 76.0171] 7.21

Give its pIC50 value. Item: VVYRLVWDK [Peptide 1589.38] 6.00

If you can, please state the reported pIC50 value of WLSEPQKCFK [Peptide 88.0236] . 5.63

Please report the recorded pIC50 for RAHSSHLR [Peptide 1556.71] . 7.40

Look at this sequence and give its reported pIC50. STVSVGTAK [Peptide 1589.09] 5.75

----------
Reported pIC50 values follow for various sequences
- Target: A*0202 (Homo sapiens, UniProt P04439, D140Y/D185E/D98H/E176V/E277Q/G131W/G231S/I119L/I121R/I166T/I218V/L180W/L300P/L318F/N151K/N90K/P208A/P217A/Q67R/Q86G/Q94H/R138H/R169H/T345S)
- Test Name: biochemical
- Assay type: binding
No end group written: not given here.
Keep it numeric: pIC50 is minus log10 of the concentration in mol/L.

As a guide, the following entries are already answered.
- Residue String: "VQWAFDNEV [Peptide 86.0209]"
  pIC50: 5.82
- Residue String: "TTVTTITVYV [Peptide 9013.0192]"
  pIC50: 7.68
- Residue String: "VLYGPDAPV [Peptide 9013.0052]"
  pIC50: 8.62

// pIC50 lookup, key: LTNTGLYNL [Peptide 1481.17] 7.70

----------
- Target: B*5401 (B54) (Homo sapiens, UniProt P01889, A329T/C349S/D138N/D201E/E176V/E187T/E204Q/E69G/I76V/K202T/L119W/R155S/R180L/S121T/S35A/S48A/V127L/V306I/V36M/Y140L)
- Test Name: biochemical
Quantity Measured: IC50

- Substance Smiles: "CC(C)C[C@H](N)C(=O)N1CCC[C@H]1C(=O)N[C@@H](Cc1ccccc1)C(=O)N[C@@H](CC(=O)O)C(=O)N[C@@H](Cc1ccccc1)C(=O)N[C@H](C(=O)N1CCC[C@H]1C(=O)NCC(=O)N[C@@H](Cc1ccc(O)cc1)C(=O)O)[C@@H](C)O"
  IC50: "253 nM"

Now for another entry.
For the compound `CC(C)C[C@H](NC(=O)[C@H](Cc1ccccc1)NC(=O)[C@H](CCCCN)NC(=O)[C@@H]1CCCN1C(=O)CNC(=O)[C@@H]1CCCN1C(=O)[C@@H](N)CC(C)C)C(=O)N[C@@H](CCC(N)=O)C(=O)N[C@@H](Cc1ccc(O)cc1)C(=O)O` , what IC50 is on record? > 30000 nM

----------
- Target: B*5301 (Homo sapiens, UniProt P01889, A329T/A93T/A95T/C349S/D201E/D98Y/E176V/E187L/E204Q/E69T/G107R/I218V/K202T/L105A/L119I/N104I/Q94N/R106L/R155S/R180L/S101N/S121R/S35A/S48A/T118I/V127L/V306I/V36M/Y140S/Y91F)
- Test Name: biochemical
- Stated Conditions: B*5301 (nM)
Reported IC50 values for a set of compounds

Answered cases to consult:
- Substance Smiles: "CC[C@H](C)[C@H](NC(=O)[C@H](Cc1ccc(O)cc1)NC(=O)[C@H](CC(C)C)NC(=O)[C@H](Cc1c[nH]cn1)NC(=O)CNC(=O)[C@@H](NC(=O)[C@@H]1CCCN1C(=O)[C@@H](N)CC(=O)O)[C@@H](C)CC)C(=O)N[C@@H](Cc1ccccc1)C(=O)O"
  Reported Value: "2550 nM"
- Substance Smiles: "CC[C@H](C)[C@H](NC(=O)[C@H](Cc1ccc(O)cc1)NC(=O)[C@H](CC(C)C)NC(=O)[C@H](Cc1c[nH]cn1)NC(=O)CNC(=O)[C@@H](NC(=O)[C@@H]1CCCN1C(=O)[C@@H](N)CC(=O)O)[C@@H](C)CC)C(=O)N[C@@H](Cc1ccccc1)C(=O)N[C@@H](C)C(=O)O"
  Reported Value: "20700 nM"

Name the reported IC50 value associated with the compound `CC(C)C[C@H](NC(=O)[C@@H](NC(=O)[C@H](CCC(=O)O)NC(=O)[C@H](CC(=O)O)NC(=O)[C@H](Cc1ccccc1)NC(=O)[C@@H]1CCCN1C(=O)[C@H](C)NC(=O)[C@@H]1CCCN1C(=O)[C@@H](N)CCC(=O)O)[C@@H](C)O)C(=O)O` 1620 nM
